The measured values listed here are drawn from ChEMBL document CHEMBL1201862.

test system: LOX IMVI; experiment: NCI tumour cell line growth inhibition, 48 h
Activity calls are given as the source filed them. Cut-off read from the data, not from the text of the source: active = GI50 up to about 1.1 µM and inactive = higher.
assay-endpoint: GI50

Past entries and their recorded results:
{"compound": "O=C1O/C(=C(\\Br)c2ccc([N+](=O)[O-])cc2)c2ccccc21", "GI50": "67.8 µM (inactive)"}
{"compound": "CNC/C(Cl)=N/S(=O)(=O)c1ccc(C)cc1", "GI50": "7.16 µM (inactive)"}
{"compound": "CCOC(=O)C(NC(=O)CC(C)C)(N1CCN(c2cc3c(cc2F)c(=O)c(C(=O)O)cn3C2CC2)CC1)C(F)(F)F (centres undefined)", "GI50": "15.8 µM (inactive)"}

Next:
Field GI50 (entry O=C(O)C1=C(C(=O)Nc2ccccc2)C2C=CC1C2 (centres undefined) ) reads > 100 µM (inactive)
